System: cultured human fibrosarcoma HT-1080 cells
MEASUREMENT NOTES: MTT assay, cell growth inhibitory activity on cancer cells
Format: cell-based
DETAILS: Homo sapiens; MTT assay, 72 hours incubation at 37° C., HT-1080 cells; value ± standard deviation
ENDPOINT LABEL: pIC50
// pIC50: -log10(molar conc.)

| COMPOUND | ASSAY VALUE |
| --- | --- |
| OC[C@H]1O[C@@H](n2cnc3c(-c4cccs4)ccnc32)C[C@H]1O [Compound IA] | 4.21 |

Switching to the query record.
Report pIC50 for Nc1cc(-c2cccs2)c2ncn([C@H]3C[C@@H](O)[C@@H](CO)O3)c2n1 [Compound IB] please.
4.47

The values you see were collected from patent US7615628B2.
